system: mice; assay: Neuropharmacological Assay (SmartCube); type: in vivo; conditions: i.p. 15 min before behavioral test; 3 doses, most efficacious dose(s) presented
Counter-ions that a name gives are not always drawn.
property name: DP: anti-depressant (probability of class match)

Cl.c1ccc2c3n(nc2c1)CCO[C@H]3[C@@H]1COCCN1 (racemic) [Compound 46]	+ (LOQ≦ + <5%)
c1ccc2c3n(nc2c1)CCOC3[C@@H]1CCN1 (stereo partly drawn) [Compound 64]	++ (5%≦ ++ <25%)
c1ccc2c3n(nc2c1)CCOC31CNC1 [Compound 40]	++ (5%≦ ++ <25%)
Cl.NCC1OCCn2nc3cc(F)ccc3c21 (stereo not drawn) [Compound 12]	+ (LOQ≦ + <5%)

DP: anti-depressant (probability of class match) for C[C@@H](N)[C@H]1OCCn2nc3ccccc3c21.Cl (relative stereo) [Compound 30] ? ++ (5%≦ ++ <25%)

DP: anti-depressant (probability of class match) for CNCC1OCCCn2nc3ccccc3c21.Cl (stereo not drawn) [Compound 51] ? +++ (25%≦ +++ <50%)

DP: anti-depressant (probability of class match) for CN1CCO[C@@H]([C@@H]2OCCn3nc4ccccc4c32)C1 [Compound 25] ? ++ (5%≦ ++ <25%)

DP: anti-depressant (probability of class match) for CNCC1OCCn2nc3cc(F)ccc3c21 (stereo not drawn) [Compound 10] ? ++++ (50%≦ ++++)

DP: anti-depressant (probability of class match) for Cl.N[C@H](CC1CCC1)C1OCCn2nc3ccccc3c21 (stereo partly drawn) [Compound 41] ? + (LOQ≦ + <5%)

DP: anti-depressant (probability of class match) for c1ccc2c3n(nc2c1)CCOC3C1CCNCC1 (stereo not drawn) [Compound 35] ? + (LOQ≦ + <5%)

DP: anti-depressant (probability of class match) for CCNCC1OCCn2nc3ccccc3c21.Cl (stereo not drawn) [Compound 18] ? + (LOQ≦ + <5%)

DP: anti-depressant (probability of class match) for CN1CCC2(C1)OCCn1nc3ccccc3c12.Cl (stereo not drawn) [Compound 23] ? ++ (5%≦ ++ <25%)

DP: anti-depressant (probability of class match) for CN1CC[C@H]1C1OCCn2nc3ccccc3c21 (stereo partly drawn) [Compound 65] ? ++ (5%≦ ++ <25%)

DP: anti-depressant (probability of class match) for c1ccc2c3n(nc2c1)CCOC3[C@@H]1CCCN1 (stereo partly drawn) [Compound 13, hydrochloride] ? ++ (5%≦ ++ <25%)

DP: anti-depressant (probability of class match) for CNCC1OCCn2nc3ccsc3c21.Cl (stereo not drawn) [Compound 58] ? ++++ (50%≦ ++++)

DP: anti-depressant (probability of class match) for CN1CCOC[C@H]1[C@H]1OCCn2nc3ccccc3c21 (racemic) [Compound 47] ? + (LOQ≦ + <5%)

DP: anti-depressant (probability of class match) for c1ccc2c3n(nc2c1)CCOC3CN1CC1 (stereo not drawn) [Compound 63] ? ++ (5%≦ ++ <25%)

DP: anti-depressant (probability of class match) for CN1CCOC[C@H]1[C@@H]1OCCn2nc3ccccc3c21 (racemic) [Compound 48] ? + (LOQ≦ + <5%)

DP: anti-depressant (probability of class match) for Cl.NCC1OCCCn2nc3ccccc3c21 (stereo not drawn) [Compound 56] ? + (LOQ≦ + <5%)

DP: anti-depressant (probability of class match) for CNCC1OCCn2nc3ccc(Cl)cc3c21.Cl (stereo not drawn) [Compound 5] ? ++ (5%≦ ++ <25%)

DP: anti-depressant (probability of class match) for CN1CCO[C@@H]([C@H]2OCCn3nc4ccccc4c32)C1 [Compound 26] ? ++ (5%≦ ++ <25%)

DP: anti-depressant (probability of class match) for c1ccc2c3n(nc2c1)CCOC3CNC1CC1 (stereo not drawn) [Compound 21] ? ++ (5%≦ ++ <25%)

DP: anti-depressant (probability of class match) for CN(CC1OCCCn2nc3ccccc3c21)C1CCC1.Cl (stereo not drawn) [Compound 55] ? + (LOQ≦ + <5%)

DP: anti-depressant (probability of class match) for CN(C)CC1OCCn2nc3cc(F)ccc3c21.Cl (stereo not drawn) [Compound 11] ? +++ (25%≦ +++ <50%)

###

system: mice; assay: Neuropharmacological Assay (SmartCube); assay type: in vivo; conditions: i.p. 15 min before behavioral test; 3 doses, most efficacious dose(s) presented
property name: MS: mood stabilizer (probability of class match)

CNCC1OCCn2nc3cnccc3c21.Cl.Cl (stereo not drawn) [Compound 61]	+ (LOQ≦ + <5%)
CC(C)N(C)CC1OCCCn2nc3ccccc3c21.Cl (stereo not drawn) [Compound 54]	+ (LOQ≦ + <5%)
CN1CC[C@H]1C1OCCn2nc3ccccc3c21 (stereo partly drawn) [Compound 65]	+ (LOQ≦ + <5%)
CN1CCO[C@@H]([C@H]2OCCn3nc4ccccc4c32)C1 [Compound 26]	+ (LOQ≦ + <5%)
CN(C)CC1OCCn2nc3ccsc3c21.Cl (stereo not drawn) [Compound 59]	+ (LOQ≦ + <5%)

Lookup: MS: mood stabilizer (probability of class match) / mice / c1ccc2c3n(nc2c1)CCOC31CCNCC1 [Compound 36] + (LOQ≦ + <5%)

###

system: mice; test: Neuropharmacological Assay (SmartCube); type: in vivo; details: i.p. 15 min before behavioral test; 3 doses, most efficacious dose(s) presented
Where a name gives a salt, the structure may show the parent alone.
property name: DP: anti-depressant (probability of class match)

Answered cases to consult:
CN(C)C[C@H]1OCCn2nc3ccccc3c21.Cl	++++ (50%≦ ++++)
CN1CCC[C@H]1C1OCCn2nc3ccccc3c21 (stereo partly drawn) [Compound 14, hydrochloride]	++ (5%≦ ++ <25%)
CCNCC1OCCCn2nc3ccccc3c21.Cl (stereo not drawn)	+ (LOQ≦ + <5%)
c1ccc2c3n(nc2c1)CCOC3CN1CCOCC1 (stereo not drawn)	++ (5%≦ ++ <25%)
C[C@H]([C@H]1OCCn2nc3ccccc3c21)N(C)C.Cl (relative stereo)	++ (5%≦ ++ <25%)
CNCC1OCCn2nc3ccccc3c21 (stereo not drawn)	++++ (50%≦ ++++)
CN(CC1OCCn2nc3ccccc3c21)C1CC1 (stereo not drawn)	++++ (50%≦ ++++)
Cl.c1ccc2c3n(nc2c1)CCOC31CN2CCC1C2 (stereo not drawn)	++ (5%≦ ++ <25%)

Lookup: DP: anti-depressant (probability of class match) / mice / CN(CC1OCCn2nc3ccccc3c21)C1CCC1.Cl (stereo not drawn) +++ (25%≦ +++ <50%)

Lookup: DP: anti-depressant (probability of class match) / mice / CNCC1OCCn2nc3ccc(F)cc3c21 (stereo not drawn) ++++ (50%≦ ++++)

Lookup: DP: anti-depressant (probability of class match) / mice / `CNC[C@@H]1OCCn2nc3ccccc3c21` + (LOQ≦ + <5%)

###

system: mice; test: Neuropharmacological Assay (SmartCube); type: in vivo; conditions: i.p. 15 min before behavioral test; 3 doses, most efficacious dose(s) presented
property name: SD: sedative hypnotic (probability of class match)

Answered cases to consult:
Cl.c1ccc2c3n(nc2c1)CCOC3[C@@H]1COCCN1 (stereo partly shown)	+ (LOQ≦ + <5%)
CN1CCC2(C1)OCCn1nc3ccccc3c12.Cl (stereo not shown)	+ (LOQ≦ + <5%)
Cl.c1ccc2c3n(nc2c1)CCO[C@@H]3[C@@H]1COCCN1 (racemic)	+ (LOQ≦ + <5%)
CN1CCO[C@@H]([C@@H]2OCCn3nc4ccccc4c32)C1	+ (LOQ≦ + <5%)
CCNCC1OCCCn2nc3ccccc3c21.Cl (stereo not shown)	+ (LOQ≦ + <5%)

SD: sedative hypnotic (probability of class match) for CNCC1OCCn2nc3ccc(Cl)cc3c21.Cl (stereo not shown) ? + (LOQ≦ + <5%)

SD: sedative hypnotic (probability of class match) for CNCC1OCCn2nc3ccccc3c21 (stereo not shown) ? ++ (5%≦ ++ <25%)

SD: sedative hypnotic (probability of class match) for CC(C)N(C)CC1OCCCn2nc3ccccc3c21.Cl (stereo not shown) ? + (LOQ≦ + <5%)

SD: sedative hypnotic (probability of class match) for Cl.c1ccc2c3n(nc2c1)CCOC31CN2CCC1C2 (stereo not shown) ? ++ (5%≦ ++ <25%)

SD: sedative hypnotic (probability of class match) for CN(C)CC1OCCn2nc3cnccc3c21.Cl.Cl (stereo not shown) ? + (LOQ≦ + <5%)

###

test system: mice; assay: Neuropharmacological Assay (SmartCube); type: in vivo; conditions: i.p. 15 min before behavioral test; 3 doses, most efficacious dose(s) presented
Where a name gives a salt, the structure may show the parent alone.
property name: SD: sedative hypnotic (probability of class match)

Answered cases to consult:
CCN(C)C[C@@H]1OCCn2nc3ccccc3c21.Cl [Compound 49]	++ (5%≦ ++ <25%)
CNCC1OCCn2nc3ccsc3c21.Cl (stereo not shown) [Compound 58]	++ (5%≦ ++ <25%)
CN1CCC[C@H]1C1OCCn2nc3ccccc3c21 (stereo partly shown) [Compound 14, hydrochloride]	+ (LOQ≦ + <5%)
c1ccc2c3n(nc2c1)CCOC3CNC1CCC1 (stereo not shown) [Compound 16]	+ (LOQ≦ + <5%)

SD: sedative hypnotic (probability of class match) for CN(C)CC1OCCn2nc3ccsc3c21.Cl (stereo not shown) [Compound 59] ? + (LOQ≦ + <5%)

SD: sedative hypnotic (probability of class match) for Cl.c1ccc2c3n(nc2c1)CCO[C@H]3[C@@H]1COCCN1 (racemic) [Compound 46] ? ++ (5%≦ ++ <25%)
